Sourced from patent US7414107B2

A collection of compounds and their measured half-life
# test-system: carboxypeptidase A (Bos taurus)
# Construct: purchased Sigma, UK type I (catalogue number not given); host or cells: bovine pancreas
# test-details: Hydrolysis kinetics in carboxypeptidase A solution
# Assay type: in vitro ADME, bovine
# measurement-context: 50 mM phosphate buffer pH 7.4, 37° C., carboxypeptidase A 1 U/ml
Where a SMILES comes first, the peptide text is derived from it. [ ]: non-standard residue; d: D form. Dab = NCC[C@H](N)C(=O)O; Dap = NC[C@H](N)C(=O)O
Give just the numeric value; min need not be written.

Recorded results for 2 compounds are shown here.
CSCC[C@H](NC(=O)[C@H](CC(C)C)NC(=O)CNC(=O)[C@H](Cc1ccccc1)NC(=O)[C@H](Cc1ccccc1)NC(=O)[C@H](CCC(N)=O)NC(=O)[C@H](CCC(N)=O)NC(=O)[C@@H]1CCCN1C(=O)[C@H](CCCCN)NC(=O)[C@@H]1CCCN1C(=O)[C@@H](N)CCCNC(=N)N)C(N)=O [Substance P-NH2, reference compound]
35
CC(C)C[C@H](NC(=O)[C@H](Cc1ccccc1)NC(=O)CNC(=O)CNC(=O)[C@@H](N)Cc1ccc(O)cc1)C(=O)N[C@@H](CCN)C(=O)N[C@@H](CCN)C(=O)N[C@@H](CCN)C(=O)N[C@@H](CCN)C(=O)N[C@@H](CCN)C(=O)N[C@@H](CCN)C(=O)O [Leu-Enkephalin-(Dbu)6-OH, H-Tyr-Gly-Gly-Phe-Leu-(Dbu)6-OH] (H-YGGFL[Dab][Dab][Dab][Dab][Dab][Dab]-OH)
1390

Attention now shifts to the item below.
-- ask // returns reported half-life for input CC(C)C[C@H](NC(=O)[C@H](Cc1ccccc1)NC(=O)CNC(=O)CNC(=O)[C@@H](N)Cc1ccc(O)cc1)C(=O)N[C@@H](CN)C(=O)N[C@@H](CN)C(=O)N[C@@H](CN)C(=O)N[C@@H](CN)C(=O)N[C@@H](CN)C(=O)N[C@@H](CN)C(=O)O [Leu-Enkephalin-(Dpr)6-OH, H-Tyr-Gly-Gly-Phe-Leu-(Dpr)6-OH] (H-YGGFL[Dap][Dap][Dap][Dap][Dap][Dap]-OH)
-- reply 29

----------
# test-details: Stability in mouse plasma at 37° C. (vas deferens bioassay readout)
# measurement-context: plasma
Where no end group is shown, it is not given here.
quantity-measured: half-life at 99 µM (min)
The answer is to be given in min; state only the numeric part.

-- ask Quick check: half-life at 99 µM of YGGFLKKKKKK [Leu-Enkephalin-(Lys)6-OH, H-Tyr-Gly-Gly-Phe-Leu-Lys6-OH] ?
-- reply 18.7

----------
# Tested on: guinea pig illeum
# measurement-context: agonist, induced contraction, illeum not electrically stimulated
quantity-measured: pEC50
Lab note: report pEC50 as minus log10 of the concentration in molar units, number only.

-- ask What does the data say about its pEC50? Entry: H-KKKKKKRPKPQQFFGLM-NH2 [(Lys)6-Substance P-NH2]
-- reply 8.30

----------
# test-system: carboxypeptidase A (Bos taurus, UniProt P00730)
# Construct: purchased Sigma, UK type I (catalogue number not given); host or cells: bovine pancreas
# test-details: Hydrolysis kinetics in carboxypeptidase A solution
# Type: in vitro ADME, bovine
# measurement-context: 50 mM phosphate buffer pH 7.4, 37° C., carboxypeptidase A 1 U/ml
Where no end group is shown, it is not given here.
Quick list: half-life per entry.
Just the number please, in h, no unit attached.

Completed entries (count: 3):
YGGFLKKKKKKKKKK [Leu-Enkephalin-(Lys)10-OH, H-Tyr-Gly-Gly-Phe-Leu-Lys10-OH]
38.5
H-YGGFLKEEEKK-OH [Leu-Enkephalin-Lys-(Glu)3-(Lys)2-OH]
14.4
H-YGGFLKEEEEK-OH [Leu-Enkephalin-(Lys-Glu4-Lys)-OH]
19.2

-- ask half-life lookup needed for H-RPKPQQFFGLMKKKKKK-NH2 [Substance P-(Lys)6-NH2] , thanks.
-- reply 2.1

----------
# test-system: carboxypeptidase A (Bos taurus)
# Construct: purchased Sigma, UK type I (catalogue number not given); host or cells: bovine pancreas
# Sequence (P00730 111-419): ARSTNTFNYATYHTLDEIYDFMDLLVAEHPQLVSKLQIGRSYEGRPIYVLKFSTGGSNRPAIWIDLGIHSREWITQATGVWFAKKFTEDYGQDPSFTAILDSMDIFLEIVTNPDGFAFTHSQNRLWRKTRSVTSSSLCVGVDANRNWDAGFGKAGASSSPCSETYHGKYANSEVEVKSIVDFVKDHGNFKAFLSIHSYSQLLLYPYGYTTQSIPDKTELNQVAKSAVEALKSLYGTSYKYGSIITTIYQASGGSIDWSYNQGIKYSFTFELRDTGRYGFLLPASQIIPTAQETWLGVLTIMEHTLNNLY
# test-details: Hydrolysis kinetics in carboxypeptidase A solution
# Assay type: in vitro ADME, bovine
# measurement-context: cattle, carboxypeptidase A solution (1 U/ml) in phosphate buffer; 50 mM phosphate buffer pH 7.4, 37° C., carboxypeptidase A 1 U/ml
Where no end group is shown, it is not given here.
quantity-measured: half-life (h)
Please state the figure in h; there is no need to write the unit.

-- ask Field request: half-life | item: YGGFLKKKKKK [Leu-Enkephalin-(Lys)6-OH, H-Tyr-Gly-Gly-Phe-Leu-Lys6-OH]
-- reply 16.5

----------
# test-details: Stability in mouse plasma at 37° C. (vas deferens bioassay readout)
# measurement-context: plasma
# Excerpt: Prior to addition of the plasma sample, a standard dose-response curve was generated in each preparation in order to express the inhibitory activity as concentration of each test substance. Thus, the calculated concentration is a reflection of inhibitory activity in the vas deferens bioassay preparation. […]
Where a SMILES comes first, the peptide text is derived from it. [ ]: non-standard residue; d: D form. Dap = NC[C@H](N)C(=O)O
quantity-measured: half-life at 99 µM

-- ask I am curious: what half-life at 99 µM value has been reported for CC(C)C[C@H](NC(=O)[C@H](Cc1ccccc1)NC(=O)CNC(=O)CNC(=O)[C@@H](N)Cc1ccc(O)cc1)C(=O)N[C@@H](CN)C(=O)N[C@@H](CN)C(=O)N[C@@H](CN)C(=O)N[C@@H](CN)C(=O)N[C@@H](CN)C(=O)N[C@@H](CN)C(=O)O [Leu-Enkephalin-(Dpr)6-OH, H-Tyr-Gly-Gly-Phe-Leu-(Dpr)6-OH] (H-YGGFL[Dap][Dap][Dap][Dap][Dap][Dap]-OH) ?
-- reply 19.8 min

----------
# test-system: leucine aminopeptidase (Sus scrofa, UniProt P28839)
# Construct: purchased Sigma, UK type III-CP (catalogue number not given); host or cells: porcine kidney
# Sequence (P28839 whole entry): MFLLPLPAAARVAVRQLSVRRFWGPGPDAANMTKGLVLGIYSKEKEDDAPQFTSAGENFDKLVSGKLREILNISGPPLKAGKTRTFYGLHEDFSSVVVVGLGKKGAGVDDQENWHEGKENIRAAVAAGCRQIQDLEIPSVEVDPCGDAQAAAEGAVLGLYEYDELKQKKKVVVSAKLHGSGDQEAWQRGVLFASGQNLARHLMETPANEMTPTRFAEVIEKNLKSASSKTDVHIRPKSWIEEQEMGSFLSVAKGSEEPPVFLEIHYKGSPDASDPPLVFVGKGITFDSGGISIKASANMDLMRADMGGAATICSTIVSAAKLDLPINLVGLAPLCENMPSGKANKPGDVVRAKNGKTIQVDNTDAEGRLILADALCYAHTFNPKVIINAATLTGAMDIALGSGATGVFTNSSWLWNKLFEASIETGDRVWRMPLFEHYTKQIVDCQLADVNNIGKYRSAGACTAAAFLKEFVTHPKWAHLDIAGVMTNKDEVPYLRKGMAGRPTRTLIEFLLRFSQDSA
# test-details: Hydrolysis kinetics in leucine aminopeptidase solution
# Assay type: in vitro ADME, porcine
# measurement-context: pig; 50 mM phosphate buffer pH 7.4, 37° C., leucine aminopeptidase 25 U/ml
Where a SMILES comes first, the peptide text is derived from it. [ ]: non-standard residue; d: D form. Orn = NCCC[C@H](N)C(=O)O; Dab = NCC[C@H](N)C(=O)O; Dap = NC[C@H](N)C(=O)O
We begin with a simple list: items and their reported half-life.
Value expressed in min; do not type the unit.

Worked examples follow.
CC(C)C[C@H](NC(=O)[C@H](Cc1ccccc1)NC(=O)CNC(=O)CNC(=O)[C@@H](N)Cc1ccc(O)cc1)C(=O)O [Leu-Enkephalin-OH, H-Tyr-Gly-Gly-Phe-Leu-OH, reference compound]
1
CC(C)C[C@H](NC(=O)[C@H](Cc1ccccc1)NC(=O)CNC(=O)CNC(=O)[C@@H](N)Cc1ccc(O)cc1)C(=O)N[C@@H](CN)C(=O)N[C@@H](CN)C(=O)N[C@@H](CN)C(=O)N[C@@H](CN)C(=O)N[C@@H](CN)C(=O)N[C@@H](CN)C(=O)O [Leu-Enkephalin-(Dpr)6-OH, H-Tyr-Gly-Gly-Phe-Leu-(Dpr)6-OH] (H-YGGFL[Dap][Dap][Dap][Dap][Dap][Dap]-OH)
4.2
CC(C)C[C@H](NC(=O)[C@H](Cc1ccccc1)NC(=O)CNC(=O)CNC(=O)[C@@H](N)Cc1ccc(O)cc1)C(=O)N[C@@H](CCN)C(=O)N[C@@H](CCN)C(=O)N[C@@H](CCN)C(=O)N[C@@H](CCN)C(=O)N[C@@H](CCN)C(=O)N[C@@H](CCN)C(=O)O [Leu-Enkephalin-(Dbu)6-OH, H-Tyr-Gly-Gly-Phe-Leu-(Dbu)6-OH] (H-YGGFL[Dab][Dab][Dab][Dab][Dab][Dab]-OH)
28

-- ask What value of measured half-life is listed for CSCC[C@H](NC(=O)[C@H](CC(C)C)NC(=O)CNC(=O)[C@H](Cc1ccccc1)NC(=O)[C@H](Cc1ccccc1)NC(=O)[C@H](CCC(N)=O)NC(=O)[C@H](CCC(N)=O)NC(=O)[C@@H]1CCCN1C(=O)[C@H](CCCCN)NC(=O)[C@@H]1CCCN1C(=O)[C@@H](N)CCCNC(=N)N)C(N)=O [Substance P-NH2, reference compound] ?
-- reply 16

-- ask Any idea what its half-life is? The molecule is CC(C)C[C@H](NC(=O)[C@H](Cc1ccccc1)NC(=O)CNC(=O)CNC(=O)[C@@H](N)Cc1ccc(O)cc1)C(=O)N[C@@H](CCCN)C(=O)N[C@@H](CCCN)C(=O)N[C@@H](CCCN)C(=O)N[C@@H](CCCN)C(=O)N[C@@H](CCCN)C(=O)N[C@@H](CCCN)C(=O)O [Leu-Enkephalin-(Orn)6-OH, H-Tyr-Gly-Gly-Phe-Leu-(Orn)6-OH] (H-YGGFL[Orn][Orn][Orn][Orn][Orn][Orn]-OH)
-- reply 108
